- method-description: Hydrolysis half life in glycine/HCl buffer at the specified pH of 3.0
- Format: ADME
- assay-context: pH 3
Lab note: anything with half-life at or over 9 min counts as Met; the rest go in Not met.

{"compound": "COc1ccc2c(c1)COP(=O)(OCC1CCC(n3cnc4c(N)ncnc43)O1)O2 (configuration not stated)", "class-name": "Met"}
{"compound": "Nc1ncnc2c1ncn2C1CCC(COP2(=O)OCc3ccccc3O2)O1 (configuration not stated)", "class-name": "Met"}
{"compound": "Nc1ncnc2c1ncn2[C@H]1C=C[C@@H](CO)O1", "class-name": "Not met"}
{"compound": "OCC1CCC(n2cnc3ncnc(O)c32)O1 (configuration not stated)", "class-name": "Met"}
{"compound": "OC[C@@H]1C=C[C@H](n2cnc3ncnc(O)c32)O1", "class-name": "Not met"}
{"compound": "Cc1cc(C)c2c(c1)COP(=O)(OCC1CCC(n3cnc4c(N)ncnc43)O1)O2 (configuration not stated)", "class-name": "Met"}

Entry source: ChEMBL document CHEMBL1132195
